molecular target: human AR (androgen receptor) (Homo sapiens, UniProt P10275); construct: expressed in transfected cells; host or cells: HEK293 (lysate, 293-AR); test: Steroid hormone nuclear receptor binding assay, AR; conditions: HEK293 lysate overexpressing human AR, [3H]-methyltrienolone
Sequence (P10275 whole entry): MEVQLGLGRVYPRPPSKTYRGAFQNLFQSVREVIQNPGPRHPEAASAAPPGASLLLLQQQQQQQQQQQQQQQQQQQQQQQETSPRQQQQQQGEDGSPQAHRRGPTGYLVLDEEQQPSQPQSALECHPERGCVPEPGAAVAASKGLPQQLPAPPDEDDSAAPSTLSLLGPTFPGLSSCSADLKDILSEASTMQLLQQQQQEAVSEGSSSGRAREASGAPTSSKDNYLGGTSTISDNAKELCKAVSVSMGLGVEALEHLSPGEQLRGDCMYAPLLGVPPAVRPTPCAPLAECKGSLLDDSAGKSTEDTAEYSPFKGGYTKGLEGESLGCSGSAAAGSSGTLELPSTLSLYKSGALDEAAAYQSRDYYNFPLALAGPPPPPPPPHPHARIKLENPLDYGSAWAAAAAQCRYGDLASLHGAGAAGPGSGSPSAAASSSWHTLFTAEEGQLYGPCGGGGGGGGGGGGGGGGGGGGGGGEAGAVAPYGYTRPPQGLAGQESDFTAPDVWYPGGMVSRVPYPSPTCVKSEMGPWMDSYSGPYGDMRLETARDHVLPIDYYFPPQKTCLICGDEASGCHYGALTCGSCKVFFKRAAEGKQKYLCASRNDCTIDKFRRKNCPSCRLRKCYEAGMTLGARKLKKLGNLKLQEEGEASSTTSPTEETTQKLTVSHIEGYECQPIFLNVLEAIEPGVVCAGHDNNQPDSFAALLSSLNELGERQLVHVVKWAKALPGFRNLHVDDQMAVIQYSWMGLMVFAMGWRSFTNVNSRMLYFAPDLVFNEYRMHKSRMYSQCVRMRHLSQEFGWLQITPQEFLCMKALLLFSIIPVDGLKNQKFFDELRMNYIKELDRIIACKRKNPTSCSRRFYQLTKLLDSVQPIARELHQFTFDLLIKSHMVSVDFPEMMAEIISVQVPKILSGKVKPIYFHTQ
pKi: −log10 of the molar value.
READOUT NAME: pKi

CC(C)OC(=O)N[C@H]1Cc2c(n(C[C@H]3OCC[C@@H]3O)c3ccc(C#N)cc23)C1 [compound of Formula (I)] | ~8.00

----------
biological target: human PR (progesterone receptor) (Homo sapiens, UniProt P06401); construct: expressed in transfected cells; host or cells: HEK293 (lysate, 293-PR); test: Steroid hormone nuclear receptor binding assay, PR; settings: HEK293 lysate overexpressing human PR, [3H]-methyltrienolone
Sequence (P06401 whole entry): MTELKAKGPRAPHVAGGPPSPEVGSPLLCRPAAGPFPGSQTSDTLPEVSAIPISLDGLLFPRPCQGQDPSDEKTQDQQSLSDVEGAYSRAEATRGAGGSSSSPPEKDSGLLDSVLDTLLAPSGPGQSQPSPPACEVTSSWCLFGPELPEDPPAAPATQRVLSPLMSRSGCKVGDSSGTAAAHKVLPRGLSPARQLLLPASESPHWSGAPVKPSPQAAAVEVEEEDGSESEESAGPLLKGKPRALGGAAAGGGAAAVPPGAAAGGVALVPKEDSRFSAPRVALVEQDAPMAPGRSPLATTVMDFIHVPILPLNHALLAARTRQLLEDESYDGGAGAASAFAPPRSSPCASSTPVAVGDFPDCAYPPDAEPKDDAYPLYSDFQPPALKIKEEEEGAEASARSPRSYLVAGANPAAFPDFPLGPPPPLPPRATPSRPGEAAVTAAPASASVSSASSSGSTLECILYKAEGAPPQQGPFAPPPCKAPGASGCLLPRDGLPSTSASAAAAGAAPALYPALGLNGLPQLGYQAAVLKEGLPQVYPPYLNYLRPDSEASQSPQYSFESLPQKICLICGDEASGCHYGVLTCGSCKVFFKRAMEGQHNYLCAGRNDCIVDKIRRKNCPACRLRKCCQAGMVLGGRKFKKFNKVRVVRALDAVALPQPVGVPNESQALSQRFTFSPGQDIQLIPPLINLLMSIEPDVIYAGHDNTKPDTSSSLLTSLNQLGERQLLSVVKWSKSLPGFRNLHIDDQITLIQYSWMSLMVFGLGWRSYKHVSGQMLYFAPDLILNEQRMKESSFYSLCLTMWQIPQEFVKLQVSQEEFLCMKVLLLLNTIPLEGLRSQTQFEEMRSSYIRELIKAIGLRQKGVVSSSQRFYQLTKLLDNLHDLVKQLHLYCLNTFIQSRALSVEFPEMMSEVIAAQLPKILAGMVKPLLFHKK
READOUT NAME: Ki

CC(C)OC(=O)N[C@H]1Cc2c(n(C[C@H]3OCC[C@@H]3O)c3ccc(C#N)cc23)C1 | > 4 µM

----------
assay: Determination of plasma exposure; format: in vivo; details: Sprague Dawley, rat, po, male rats, 10 mg/kg p.o. once per day for two weeks, 5% DMSO/95% HEC, read-out: AUC (area under the plasma concentration time curve)
READOUT NAME: AUC

CC(C)OC(=O)N[C@H]1Cc2c(n(C[C@H]3OCC[C@@H]3O)c3ccc(C#N)cc23)C1 | ~296 µg·h/mL
